Listed here are compounds together with their documented IC50.
- tested.system: human recombinant 11β-HSD2 (Homo sapiens, UniProt P80365)
- Sequence (P80365 whole entry): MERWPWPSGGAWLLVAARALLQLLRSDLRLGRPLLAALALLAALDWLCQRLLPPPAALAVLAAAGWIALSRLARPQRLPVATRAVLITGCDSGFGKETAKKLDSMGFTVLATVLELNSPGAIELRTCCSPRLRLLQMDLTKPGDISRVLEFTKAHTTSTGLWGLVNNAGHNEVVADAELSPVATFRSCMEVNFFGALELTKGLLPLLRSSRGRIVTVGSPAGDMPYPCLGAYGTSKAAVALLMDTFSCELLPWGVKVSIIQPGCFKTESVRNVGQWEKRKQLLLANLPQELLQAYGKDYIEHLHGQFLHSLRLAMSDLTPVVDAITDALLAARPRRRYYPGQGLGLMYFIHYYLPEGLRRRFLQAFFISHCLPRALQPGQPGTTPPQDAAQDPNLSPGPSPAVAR
- assay.comment: Test for measuring human 11β-HSD2 inhibitory activity (HTRF cortisol detection)
- Assay type: biochemical
- reported.conditions: human recombinant enzyme, 200 nM cortisol, 200 μM NAD, pH 8.0, 37° C. 2 hours; average of 3 wells
- Procedure: (1) Test for Measuring Human 11β-HSD1/11β-HSD2 Inhibitory Activity The procedure for measuring human 11β-HSD1/11β-HSD2 inhibitory activity is as follows. The enzymatic reaction and measurement were performed using a 384-well plate. […] After the enzymatic reaction, an enzymatic inhibitory activity was measured by detecting cortisol using homogeneous time-resolved fluorescence (HTRF). […]

Sample records with IC50:
[
  {
    "mol.smiles": "Clc1ccc(C2(c3nnc4n3CCCCC4)CCCC2)s1",
    "IC50": "> 3 µM"
  },
  {
    "mol.smiles": "c1csc(C2(c3nnc4n3CCCCCC4)CCCC2)c1",
    "IC50": "> 1 µM"
  },
  {
    "mol.smiles": "Cn1cccc1C(C)(C)c1nnc(-c2ccccc2Cl)n1C",
    "IC50": "> 3 µM"
  },
  {
    "mol.smiles": "c1csc(C2(c3nnc4n3CCCCC4)CCCC2)c1",
    "IC50": "> 3 µM"
  }
]

Next compound, IC50 to be filled in.
IN: IC50 lookup needed for CC(C)(c1cccs1)c1nnc2n1CCCCCC2 , thanks.
OUT: > 1 µM

---

- tested.system: human recombinant 11β-HSD1 (Homo sapiens)
- Sequence (P28845 whole entry): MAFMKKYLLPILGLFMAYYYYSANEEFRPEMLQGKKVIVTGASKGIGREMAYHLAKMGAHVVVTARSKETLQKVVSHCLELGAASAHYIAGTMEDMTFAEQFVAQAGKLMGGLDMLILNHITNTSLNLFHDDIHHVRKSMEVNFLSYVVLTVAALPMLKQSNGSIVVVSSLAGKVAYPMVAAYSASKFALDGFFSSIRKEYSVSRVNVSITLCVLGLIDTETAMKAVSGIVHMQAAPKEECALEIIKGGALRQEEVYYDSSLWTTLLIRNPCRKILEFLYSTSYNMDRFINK
- assay.comment: Test for measuring human 11β-HSD1 inhibitory activity (HTRF cortisol detection)
- Assay type: biochemical
- reported.conditions: human recombinant enzyme, 200 nM cortisone, 40 μM NADPH, pH 6.6, room temperature 1 hour; average of 3 wells
measure: log10 of IC50 (log10 of the value in µM)
// stored as log10 of IC50 expressed in µM

Sample records with log10 of IC50:
[
  {
    "mol.smiles": "c1csc(C2(c3nnc4n3CCCCC4)CCCC2)c1",
    "observed": -1.89
  },
  {
    "mol.smiles": "CN(C1(c2nnc(-c3ccccc3Cl)n2C)CCCC1)S(=O)(=O)c1ccccc1",
    "observed": -1.82
  },
  {
    "mol.smiles": "c1csc(C2(c3nnc4n3CCCCCC4)CCCC2)c1",
    "observed": -2.36
  },
  {
    "mol.smiles": "Clc1ccc(C2(c3nnc4n3CCCCC4)CCCC2)s1",
    "observed": -2.28
  },
  {
    "mol.smiles": "Cn1c(-c2ccccc2Cl)nnc1C(C)(C)NC(=O)c1ccccc1",
    "observed": -1.22
  }
]

IN: log10 of IC50 lookup needed for Cn1cccc1C(C)(C)c1nnc(-c2ccccc2Cl)n1C , thanks.
OUT: -1.74

IN: Try this molecule next: CC(C)(c1cccs1)c1nnc2n1CCCCCC2
OUT: -2.18
